# measurementTarget: Tyrosine-protein phosphatase non-receptor type 1 (Homo sapiens)
# experiment: Inhibition of human recombinant PTP1B assessed as p-nitorphenol production after 30 mins
In plain terms, low IC50, meaning strictly below 40 µM, gives fulfilled, and everything else gives not fulfilled.

Exam item: Answer whether the compound O=Cc1cc([C@@H]2CC(=O)c3ccc(O)cc3O2)ccc1O has IC50 strictly less than 40 µM
Marked response: not fulfilled

Continuing:
Exam item: Input COc1cc(O)c([C@]2(O)COc3cc(O)ccc3C2=O)cc1CC=C(C)C ; condition: IC50 strictly below 40 µM. Does it hold?
Marked response: fulfilled

Exam item: Bench note: check whether O=C1C[C@@H](c2ccc(O)cc2)Oc2cc(O)ccc21 shows IC50 below 40 µM
Marked response: not fulfilled

Exam item: Strictly below 40 µM: is that where IC50 of COc1cc([C@@H]2CC(=O)c3ccc(O)cc3O2)ccc1O sits?
Marked response: not fulfilled

Exam item: Dear colleague, could you confirm whether IC50 of CC(C)=CCc1cc([C@@H]2CC(=O)c3c(O)cc(O)cc3O2)cc(CC=C(C)C)c1O falls below 40 µM? Thanks.
Marked response: fulfilled

Exam item: Regarding CC(C)=CCc1cc([C@@H]2CC(=O)c3ccc(O)cc3O2)cc2c1OC(C)(C)C(O)C2 (some centres undefined) , kindly confirm whether its IC50 is beneath 40 µM.
Marked response: fulfilled

Exam item: Answer whether the compound COc1ccc(C2CC(=O)c3ccc(O)cc3O2)cc1CC=C(C)C (centres undefined) has IC50 strictly less than 40 µM
Marked response: fulfilled

Exam item: In the record for CC1(C)Oc2ccc([C@@H]3CC(=O)c4ccc(O)cc4O3)cc2CC1O (some centres undefined) , is IC50 less than 40 µM?
Marked response: not fulfilled

Exam item: Field: below-cutoff. Rule: recorded IC50 strictly less than 40 µM. Subject: CC(C)=CCc1cc([C@@H]2CC(=O)c3ccc(O)cc3O2)ccc1O
Marked response: fulfilled

====

As shown below, each of these compounds has a reported IC50 value.
# measurementTarget: Tyrosine-protein phosphatase non-receptor type 1 (Homo sapiens, UniProt P18031)
# Sequence (P18031 whole entry): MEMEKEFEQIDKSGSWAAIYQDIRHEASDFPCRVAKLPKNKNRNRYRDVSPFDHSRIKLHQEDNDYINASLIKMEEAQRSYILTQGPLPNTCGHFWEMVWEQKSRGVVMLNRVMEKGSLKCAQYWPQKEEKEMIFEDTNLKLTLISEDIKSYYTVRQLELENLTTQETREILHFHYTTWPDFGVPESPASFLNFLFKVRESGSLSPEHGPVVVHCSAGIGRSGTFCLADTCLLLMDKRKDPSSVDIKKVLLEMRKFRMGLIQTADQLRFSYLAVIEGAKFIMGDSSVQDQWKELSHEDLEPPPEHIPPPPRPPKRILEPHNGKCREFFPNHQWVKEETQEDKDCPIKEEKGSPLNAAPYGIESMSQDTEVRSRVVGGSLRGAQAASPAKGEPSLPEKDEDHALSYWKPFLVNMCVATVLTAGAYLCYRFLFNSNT
# experiment: Inhibition of human recombinant PTP1B assessed as p-nitorphenol production after 30 mins
Write it as a number; the unit µM goes unstated.

Exam item: Report IC50 for COc1cc(O)c(C2COc3cc(O)ccc3C2=O)cc1CC=C(C)C (stereo not drawn) please.
Marked response: 17.2

Exam item: For the compound COc1cc(OC)c([C@H]2COc3cc(O)ccc3C2=O)cc1CC=C(C)C , what IC50 is on record?
Marked response: 15.2

Exam item: So what does the record say about IC50 for CC(C)=CCc1cc([C@@H]2CC(=O)c3ccc(O)cc3O2)cc2c1OC(C)(C)C=C2 ?
Marked response: 72.9
